# Test system: MDA-MB-468 breast
# protocol_summary: NCI tumour cell line growth inhibition, 48 h; in the data active = GI50 below about 0.43 µM; inactive = the rest
Classes to choose from: active, inactive

Record excerpt, results attached:
{"molecule": "COc1ccc([C@@]23Oc4cc(OC)cc(OC)c4[C@]2(O)[C@H](O)[C@H](C(N)=O)[C@H]3c2ccccc2)cc1", "group": "active"}
{"molecule": "CC(=O)C1=C(O)C=C2Oc3c(C(=O)/C=C/c4cc(Cl)cc(Cl)c4)c(O)c(C)c(O)c3[C@]2(C)C1=O", "group": "inactive"}
{"molecule": "CCN(Cc1cccc(Cl)c1)c1ccc(CO)c(Cl)c1", "group": "active"}
{"molecule": "CN1CCN(C(=O)COc2ccc(/C=C3\\CC4C5CC=C6CC(Cl)CCC6(C)C5CCC4(C)C3=O)cc2)CC1 (stereo not given)", "group": "inactive"}

Now look at this one.
INPUT: Could you please tell me the result logged for CCN(CC)CCCC(C)N/C(=C1\C(=O)NC(=O)\C1=C(/NC(C)CCCN(CC)CC)c1cccc(OC)c1)c1cccc(OC)c1 (stereo not given) in this assay?
OUTPUT: inactive

---

# System: MDA-MB-468 breast
# protocol_summary: NCI tumour cell line growth inhibition, 48 h
Consider the following compounds; for each one, report its log10 of TGI.
Heads up: the numbers are on a log10 scale; they represent TGI in µM.

{"compound": "CO[C@H]1CC(O[C@@H]2/C(C)=C/C[C@@H]3C[C@@H](C[C@]4(CC[C@H](C)[C@@H](C5CCCCC5)O4)O3)OC(=O)[C@@H]3C=C(C)/C(=N/O)[C@H]4OC/C(=C\\C=C\\[C@@H]2C)[C@]43O)O[C@@H](C)C1O (stereo partly specified)", "recorded_metric": "log10 of TGI", "result_number": 0.25}
{"compound": "CC(=O)C1=C(O)C=C2Oc3c(C(=O)/C=C/c4cc(Cl)cc(Cl)c4)c(O)c(C)c(O)c3[C@]2(C)C1=O", "recorded_metric": "log10 of TGI", "result_number": 0.13}
{"compound": "Cc1cc(Nc2nc(N[C@@H](C)c3ncc(F)cn3)ncc2Cl)n[nH]1", "recorded_metric": "log10 of TGI", "result_number": 1.72}

// each compound listed below needs its log10 of TGI
1. CCN(Cc1cccc(Cl)c1)c1ccc(CO)c(Cl)c1
2. N#Cc1cnc(Nc2cc(NC[C@H]3CNCCO3)c(C(F)(F)F)cn2)cn1

OUTPUT:
[-1.09, 1.57]
